assay: Plasma pharmacokinetics, QW schedule; assay type: in vivo, human; settings: human, plasma, oral, 90 mg, C48h Mean ± SD, 90mg QW, Last Day of cycle 1, plasma
readout.type: concentration at 48 h (nM)
Answers are plain numbers, in nM.

Entry under review: NC1(c2ccc(-c3nc4ccn5c(=O)[nH]nc5c4cc3-c3ccccc3)cc2)CCC1 [MK-2206] . Reported concentration at 48 h?
79.3

---

experiment: Plasma pharmacokinetics, QW schedule; type: in vivo, human; conditions: human, plasma, oral, 90 mg, C48h Mean ± SD, 90mg QW, Day 1, plasma
readout.type: concentration at 48 h (nM)
Give bare numbers, in nM.

Entry under review: NC1(c2ccc(-c3nc4ccn5c(=O)[nH]nc5c4cc3-c3ccccc3)cc2)CCC1 . Reported concentration at 48 h?
50.9

---

assay: Plasma pharmacokinetics, QW schedule; assay type: in vivo, human; conditions: human, plasma, oral, 90 mg, mean C48h, 90mg QW, multiple dose
readout.type: concentration at 48 h (nM)
Give bare numbers, in nM.

Entry under review: NC1(c2ccc(-c3nc4ccn5c(=O)[nH]nc5c4cc3-c3ccccc3)cc2)CCC1 . Reported concentration at 48 h?
79.3

---

assay: Plasma pharmacokinetics, QW schedule; format: in vivo, human; conditions: human, plasma, oral, 300 mg, C48h Mean, 300mg QW, Day 1, plasma
readout.type: concentration at 48 h (µM)
Answers are plain numbers, in µM.

Entry under review: NC1(c2ccc(-c3nc4ccn5c(=O)[nH]nc5c4cc3-c3ccccc3)cc2)CCC1 . Reported concentration at 48 h?
0.253

---

test: Plasma pharmacokinetics, QW schedule; assay type: in vivo, human; details: human, plasma, oral, 135 mg
readout.type: Tmax (h)
Answers are plain numbers, in h.

Entry under review: NC1(c2ccc(-c3nc4ccn5c(=O)[nH]nc5c4cc3-c3ccccc3)cc2)CCC1 . Reported Tmax?
5

---

assay: Plasma pharmacokinetics, QW schedule; type: in vivo, human; settings: human, plasma, oral, 150 mg, C48h, 150mg QW, Last Day of cycle 1, plasma, N=1
readout.type: concentration at 48 h (nM)
Numbers only, in nM.

Entry under review: NC1(c2ccc(-c3nc4ccn5c(=O)[nH]nc5c4cc3-c3ccccc3)cc2)CCC1 . Reported concentration at 48 h?
185

---

test: Plasma pharmacokinetics, QW schedule; type: in vivo, human; details: human, plasma, oral, 300 mg, mean Cmax after the first dose, 300mg QW cohort
readout.type: Cmax (nM)
Give bare numbers, in nM.

Entry under review: NC1(c2ccc(-c3nc4ccn5c(=O)[nH]nc5c4cc3-c3ccccc3)cc2)CCC1 . Reported Cmax?
466

---

experiment: Plasma pharmacokinetics, QW schedule; assay type: in vivo, human; conditions: human, plasma, oral, 150 mg, Cmax, 150mg QW, Last Day of cycle 1, plasma, N=1
readout.type: Cmax (nM)
Numbers only, in nM.

Entry under review: NC1(c2ccc(-c3nc4ccn5c(=O)[nH]nc5c4cc3-c3ccccc3)cc2)CCC1 [MK-2206] . Reported Cmax?
346

---

assay: Plasma pharmacokinetics, QW schedule; type: in vivo, human; details: human, plasma, oral, 250 mg, C48h, 250mg QW, Last Day of cycle 1, plasma, N=1
readout.type: concentration at 48 h (nM)
One number for each entry, in nM.

Entry under review: NC1(c2ccc(-c3nc4ccn5c(=O)[nH]nc5c4cc3-c3ccccc3)cc2)CCC1 . Reported concentration at 48 h?
74.8

---

assay: Plasma pharmacokinetics, QW schedule; assay type: in vivo, human; conditions: human, plasma, oral, 135 mg, mean C48h, 135mg QW, multiple dose
readout.type: concentration at 48 h (nM)
Answers are plain numbers, in nM.

Entry under review: NC1(c2ccc(-c3nc4ccn5c(=O)[nH]nc5c4cc3-c3ccccc3)cc2)CCC1 . Reported concentration at 48 h?
158

---

assay: Plasma pharmacokinetics, QW schedule; assay type: in vivo, human; conditions: human, plasma, oral, 200 mg, C48h Mean ± SD, 200mg QW, Day 1, plasma
readout.type: concentration at 48 h (nM)
Give bare numbers, in nM.

Entry under review: NC1(c2ccc(-c3nc4ccn5c(=O)[nH]nc5c4cc3-c3ccccc3)cc2)CCC1 [MK-2206] . Reported concentration at 48 h?
121

---

assay: Plasma pharmacokinetics, QW schedule; assay type: in vivo, human; details: human, plasma, oral, 150 mg, Cmax Mean, 150mg QW, Day 1, plasma, N=2
readout.type: Cmax (nM)
Answers are plain numbers, in nM.

Entry under review: NC1(c2ccc(-c3nc4ccn5c(=O)[nH]nc5c4cc3-c3ccccc3)cc2)CCC1 . Reported Cmax?
337

---

assay: Plasma pharmacokinetics, QW schedule; assay type: in vivo, human; details: human, plasma, oral, 150 mg
readout.type: Tmax

Entry under review: NC1(c2ccc(-c3nc4ccn5c(=O)[nH]nc5c4cc3-c3ccccc3)cc2)CCC1 [MK-2206] . Reported Tmax?
4 to 10 h

---

test: Plasma pharmacokinetics, QW schedule; assay type: in vivo, human; conditions: human, plasma, oral, 150 mg, C48h Mean, 150mg QW, Day 1, plasma, N=2
readout.type: concentration at 48 h (nM)
Answers are plain numbers, in nM.

Entry under review: NC1(c2ccc(-c3nc4ccn5c(=O)[nH]nc5c4cc3-c3ccccc3)cc2)CCC1 [MK-2206] . Reported concentration at 48 h?
155

---

test: Plasma pharmacokinetics, QW schedule; assay type: in vivo, human; details: human, plasma, oral, 150 mg
readout.type: half-life (h)
Answers are plain numbers, in h.

Entry under review: NC1(c2ccc(-c3nc4ccn5c(=O)[nH]nc5c4cc3-c3ccccc3)cc2)CCC1 . Reported half-life?
64.4

---

test: Plasma pharmacokinetics, QW schedule; format: in vivo, human; conditions: human, plasma, oral, 250 mg, Cmax, 250mg QW, Last Day of cycle 1, plasma, N=1
readout.type: Cmax (nM)
Give bare numbers, in nM.

Entry under review: NC1(c2ccc(-c3nc4ccn5c(=O)[nH]nc5c4cc3-c3ccccc3)cc2)CCC1 . Reported Cmax?
169
